These data points were gathered from PubChem BioAssay.

Molecular target: Albumin (Bos taurus) (UniProt P02769)
Sequence (P02769 whole entry, looked up): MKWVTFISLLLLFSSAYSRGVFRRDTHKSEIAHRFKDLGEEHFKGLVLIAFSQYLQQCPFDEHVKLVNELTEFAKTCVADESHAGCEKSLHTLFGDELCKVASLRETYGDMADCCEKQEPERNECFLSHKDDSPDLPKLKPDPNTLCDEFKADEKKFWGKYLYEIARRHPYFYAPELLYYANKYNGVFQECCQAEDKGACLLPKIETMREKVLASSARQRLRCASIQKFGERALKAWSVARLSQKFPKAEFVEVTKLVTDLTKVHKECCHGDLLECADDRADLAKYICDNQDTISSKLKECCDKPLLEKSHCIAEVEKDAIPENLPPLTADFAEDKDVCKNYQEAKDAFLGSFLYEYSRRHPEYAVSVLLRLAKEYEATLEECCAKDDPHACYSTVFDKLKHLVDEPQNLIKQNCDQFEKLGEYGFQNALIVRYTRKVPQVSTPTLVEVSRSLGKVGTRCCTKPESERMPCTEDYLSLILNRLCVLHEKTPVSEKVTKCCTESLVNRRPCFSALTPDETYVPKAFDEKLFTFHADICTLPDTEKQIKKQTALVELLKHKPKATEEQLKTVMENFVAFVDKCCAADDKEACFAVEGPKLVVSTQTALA
Experiment: bovine serum albumin binders on microarray, profiling panel, artefact control for SMM control protein annotation, biochemical, small-molecule microarray, Alexa647 label, 635/667 nm fluorescence (AID 1118);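 note: score merges 667 nm emission intensity and signal-to-noise per printed compound spot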
Conditions: BSA-A647 binding, fluorescence 635 nm, higher = more signal
We use 0.5 as the dividing line for composite z-score: on or above the line is 1.0, below is 0.0.

CCN1C(=O)[C@H]2[C@H]3[C@H](O)[C@H](O)CC(=NO[C@@H](C)c4cn([C@H](CO)Cc5ccccc5)nn4)[C@@H]3CC[C@H]2C1=O : 0.0
CCOC(=O)[C@H](CC(C)C)NC(=O)CCC1CC(OC(=O)NCc2cccc3ccccc23)CC2(CCCC(COC(=O)NCCc3ccc(Cl)cc3)O2)O1 (stereo partly specified) : 0.0
CC(=O)OC[C@H]1O[C@H](CCON=C2[C@H]3CCn4c(=O)n(-c5ccccc5)c(=O)n4[C@H]3[C@H](O)[C@@H]3O[C@H]23)C=C[C@@H]1OC(C)=O : 0.0
CCOC(=O)[C@H](CC(C)C)NC(=O)CCC1CC(OC(=O)NCCc2ccc(F)cc2)CC2(CCCC(COC(=O)NCC(c3ccccc3)c3ccccc3)O2)O1 (stereo partly specified) : 0.0

Next, consider the following compound.
query: API: above_or_equal(metric=composite z-score, cutoff=0.5) for item COC(=O)[C@H](C)NC(=O)CCC1CC(OC(=O)NCc2cccc3ccccc23)CC2(CCCC(COC(=O)NCC(c3ccccc3)c3ccccc3)O2)O1 (stereo partly specified)
result: 1.0
